For reference, pIC50 measured on PDGFRb (Homo sapiens):
Give bare numbers, as −log10 of the molar value.

Here is how some compounds turned out for pIC50.
[[record]]
compound = "O=C(Nc1cnc(Nc2ccc(OCCN3CCCC3)cc2)nc1)c1cc(O)ccc1Cl [drawing 200]"
system = "PDGFRb (Homo sapiens)"
experimental_endpoint = "pIC50"
result = 7.70

[[record]]
compound = "O=C(Nc1cnc(Nc2cccc(OCCN3CCCC3)c2)nc1)c1c(Cl)cccc1Cl [drawing 202]"
system = "PDGFRb (Homo sapiens)"
experimental_endpoint = "pIC50"
result = 6.74

[[record]]
compound = "CC(C)N(CCO)C(=O)c1ccc(Nc2ncc(NC(=O)c3cc(O)ccc3Cl)cn2)cc1 [drawing 210]"
system = "PDGFRb (Homo sapiens)"
experimental_endpoint = "pIC50"
result = 6.86

[[record]]
compound = "O=C(NCCN1CCCC1)c1ccc(Nc2ncc(NC(=O)c3cc(O)ccc3Cl)cn2)cc1 [drawing 208]"
system = "PDGFRb (Homo sapiens)"
experimental_endpoint = "pIC50"
result = 8.20

[[record]]
compound = "O=C(NCCN1CCCC1)c1ccc(Nc2ncc(NC(=O)c3cc(O)ccc3Cl)cn2)cn1 [drawing 204]"
system = "PDGFRb (Homo sapiens)"
experimental_endpoint = "pIC50"
result = 7.89


Now for a further compound.
Data request: # get_value(readout='pIC50', item= O=C(Nc1cnc(Nc2cccc(OCCN3CCCC3)c2)nc1)c1cc(O)ccc1Cl [drawing 201] )
Data returned: 7.89

###

- System: human c-Src (Homo sapiens, UniProt P12931)
- Sequence (P12931 whole entry): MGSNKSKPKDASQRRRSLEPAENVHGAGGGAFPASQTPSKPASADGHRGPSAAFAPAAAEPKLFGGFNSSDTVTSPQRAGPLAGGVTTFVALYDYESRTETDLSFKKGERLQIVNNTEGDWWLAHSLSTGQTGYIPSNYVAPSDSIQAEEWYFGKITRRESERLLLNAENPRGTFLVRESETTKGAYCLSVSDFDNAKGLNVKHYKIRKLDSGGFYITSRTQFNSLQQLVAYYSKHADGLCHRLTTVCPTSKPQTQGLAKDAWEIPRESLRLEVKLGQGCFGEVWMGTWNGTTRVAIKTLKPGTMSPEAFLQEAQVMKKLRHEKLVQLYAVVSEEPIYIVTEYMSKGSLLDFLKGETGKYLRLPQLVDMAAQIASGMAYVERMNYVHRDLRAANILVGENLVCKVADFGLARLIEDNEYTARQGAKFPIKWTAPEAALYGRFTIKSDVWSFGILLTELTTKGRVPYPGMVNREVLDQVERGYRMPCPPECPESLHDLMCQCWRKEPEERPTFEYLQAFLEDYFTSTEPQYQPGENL
- Protocol summary: Src kinase inhibition, luciferase-based residual ATP (KinaseGlo)
- Test context: recombinant human c-Src, ATP 3 μM, PTK2 substrate, 90 minutes at room temperature
So basically, if IC50 comes in under 60 nM it's T, and if it's 60 nM or more it's F.

See these solved cases before continuing.
[[record]]
smiles_input = "O=C(Nc1cnc(Nc2ccc(S(=O)(=O)CCCN3CCCC3)cc2)nc1)c1cc(O)ccc1Cl"
label = "T"

[[record]]
smiles_input = "O=C(Nc1cnc(Nc2ccc(S(=O)(=O)CCCN3CCCC3)cc2)nc1)c1cccc(O)c1"
label = "F"

[[record]]
smiles_input = "Oc1ccc(Cl)c(CNc2cnc(Nc3ccc(OCCN4CCCC4)cc3)nc2)c1"
label = "T"

[[record]]
smiles_input = "O=C(Nc1cnc(Nc2ccc(C(=O)N3CCN(CCO)CC3)nc2)nc1)c1c(Cl)cccc1Cl"
label = "F"

[[record]]
smiles_input = "O=C(Nc1cnc(Nc2ccc(S(=O)(=O)N3CCNCC3)cc2)nc1)c1cc(O)ccc1Cl"
label = "T"

[[record]]
smiles_input = "O=C(NCCN1CCCC1)c1ccc(Nc2ncc(NC(=O)c3c(Cl)cccc3Cl)cn2)cn1"
label = "F"


Data request: Does the reported IC50 of "O=C(Nc1cnc(Nc2ccc(S(=O)(=O)NCCN3CCCC3)cc2)nc1)c1c(Cl)cccc1Cl" stay below 60 nM?
Data returned: F

###

- System: human c-Src (Homo sapiens, UniProt P12931)
- Protocol summary: Src kinase inhibition, luciferase-based residual ATP (KinaseGlo)
- Test context: recombinant human c-Src, ATP 3 μM, PTK2 substrate, 90 minutes at room temperature
Consider the following molecules; for each one, report its pIC50.
Numbers only, as −log10 of the molar value.

[[record]]
smiles_input = "Cc1cccc(C)c1C(=O)Nc1cnc(Nc2ccc(S(=O)(=O)NCCN3CCCC3)cc2)nc1"
system = "human c-Src (Homo sapiens, UniProt P12931)"
experimental_endpoint = "pIC50"
result = 7.05


For the 5 molecules below, give their pIC50 values.
1. Cc1cccc(C)c1C(=O)Nc1cnc(Nc2ccc(C(=O)N3CCN(C)CC3)cc2)nc1
2. CC(C)N(CCO)C(=O)c1ccc(Nc2ncc(NC(=O)c3c(Cl)cccc3Cl)cn2)cc1
3. O=C(Nc1cnc(Nc2cccnc2)nc1)c1c(Cl)cccc1Cl
4. COc1ccc(Cl)c(C(=O)Nc2cnc(Nc3ccc(S(=O)(=O)CCCN4CCCC4)cc3)nc2)c1
5. Cc1cccc(C)c1C(=O)Nc1cnc(Nc2ccc(C(=O)NCCN3CCCC3)cc2)nc1

Data returned:
6.65
6.54
6.52
5.10
6.93

For the 3 molecules below, give their pIC50 values.
1. O=C(Nc1cnc(Nc2ccc(S(=O)(=O)NCCN3CCCC3)cc2)nc1)c1cc(O)ccc1Cl
2. CC(C)N(CCO)C(=O)c1cccc(Nc2ncc(NC(=O)c3cc(O)ccc3Cl)cn2)c1
3. Cc1nc(Nc2ncc(NC(=O)c3c(Cl)cccc3Cl)cn2)cc(N2CCN(CCO)CC2)n1

Data returned:
1: 7.89; 2: 7.72; 3: 5.52

###

- System: UniProt:P35968
- Sequence (P35968 20-1356, species assumed): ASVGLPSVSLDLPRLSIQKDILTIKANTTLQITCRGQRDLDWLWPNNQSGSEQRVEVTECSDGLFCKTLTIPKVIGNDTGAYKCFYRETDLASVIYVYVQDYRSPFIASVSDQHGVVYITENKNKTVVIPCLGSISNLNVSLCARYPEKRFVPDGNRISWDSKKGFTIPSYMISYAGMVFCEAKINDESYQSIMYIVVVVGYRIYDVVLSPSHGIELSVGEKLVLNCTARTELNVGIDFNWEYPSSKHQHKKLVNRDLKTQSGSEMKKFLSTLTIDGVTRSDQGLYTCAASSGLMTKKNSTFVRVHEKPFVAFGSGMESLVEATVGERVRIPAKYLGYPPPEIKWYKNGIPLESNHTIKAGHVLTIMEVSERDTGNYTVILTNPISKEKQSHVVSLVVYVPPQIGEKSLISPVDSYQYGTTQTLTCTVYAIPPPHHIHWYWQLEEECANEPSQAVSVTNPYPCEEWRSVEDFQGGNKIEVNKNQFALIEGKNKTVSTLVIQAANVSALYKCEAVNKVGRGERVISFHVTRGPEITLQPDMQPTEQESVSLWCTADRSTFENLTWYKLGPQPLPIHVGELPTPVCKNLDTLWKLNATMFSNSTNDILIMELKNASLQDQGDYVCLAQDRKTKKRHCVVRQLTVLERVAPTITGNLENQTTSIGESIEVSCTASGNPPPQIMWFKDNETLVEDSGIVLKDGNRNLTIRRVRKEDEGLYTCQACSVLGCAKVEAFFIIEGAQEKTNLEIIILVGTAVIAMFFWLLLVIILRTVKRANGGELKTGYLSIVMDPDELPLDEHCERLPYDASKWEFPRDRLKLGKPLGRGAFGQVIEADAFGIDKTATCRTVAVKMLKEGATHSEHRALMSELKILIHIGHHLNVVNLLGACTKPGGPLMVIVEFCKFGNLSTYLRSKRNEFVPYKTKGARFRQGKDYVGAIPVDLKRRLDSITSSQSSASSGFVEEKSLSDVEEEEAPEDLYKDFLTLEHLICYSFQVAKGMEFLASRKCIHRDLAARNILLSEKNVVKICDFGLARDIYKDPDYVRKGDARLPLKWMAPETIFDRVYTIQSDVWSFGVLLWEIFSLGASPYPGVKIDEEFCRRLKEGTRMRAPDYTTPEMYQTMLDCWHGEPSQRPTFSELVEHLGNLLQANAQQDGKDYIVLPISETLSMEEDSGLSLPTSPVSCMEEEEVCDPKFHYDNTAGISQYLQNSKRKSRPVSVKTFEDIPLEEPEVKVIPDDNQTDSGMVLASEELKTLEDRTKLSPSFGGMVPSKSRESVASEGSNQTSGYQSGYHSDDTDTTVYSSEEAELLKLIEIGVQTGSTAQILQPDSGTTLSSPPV
Experimental endpoint: IC50

Here is how some compounds turned out for IC50.
[[record]]
compound = "O=C(Nc1cnc(Nc2ccc(S(=O)(=O)NCCN3CCCC3)cc2)nc1)c1cc(O)ccc1Cl [drawing 203]"
experimental_endpoint = "IC50"
result = "322 nM"

[[record]]
compound = "O=C(NCCN1CCCC1)c1ccc(Nc2ncc(NC(=O)c3cc(O)ccc3Cl)cn2)cc1 [drawing 208]"
experimental_endpoint = "IC50"
result = "257 nM"

[[record]]
compound = "CN1CCN(C(=O)c2ccc(Nc3ncc(NC(=O)c4cc(O)ccc4Cl)cn3)cc2)CC1 [drawing 207]"
experimental_endpoint = "IC50"
result = "360 nM"

[[record]]
compound = "O=C(Nc1cnc(Nc2cccc(OCCN3CCCC3)c2)nc1)c1c(Cl)cccc1Cl [drawing 202]"
experimental_endpoint = "IC50"
result = "> 10000 nM"


Now for a further compound.
Data request: # get_value(readout='IC50', item= Clc1cccc(Cl)c1CNc1cnc(Nc2cccc(OCCN3CCCC3)c2)nc1 [drawing 211] )
Data returned: 138 nM

###

- System: human Yes (Homo sapiens)
- Sequence (P07947 whole entry): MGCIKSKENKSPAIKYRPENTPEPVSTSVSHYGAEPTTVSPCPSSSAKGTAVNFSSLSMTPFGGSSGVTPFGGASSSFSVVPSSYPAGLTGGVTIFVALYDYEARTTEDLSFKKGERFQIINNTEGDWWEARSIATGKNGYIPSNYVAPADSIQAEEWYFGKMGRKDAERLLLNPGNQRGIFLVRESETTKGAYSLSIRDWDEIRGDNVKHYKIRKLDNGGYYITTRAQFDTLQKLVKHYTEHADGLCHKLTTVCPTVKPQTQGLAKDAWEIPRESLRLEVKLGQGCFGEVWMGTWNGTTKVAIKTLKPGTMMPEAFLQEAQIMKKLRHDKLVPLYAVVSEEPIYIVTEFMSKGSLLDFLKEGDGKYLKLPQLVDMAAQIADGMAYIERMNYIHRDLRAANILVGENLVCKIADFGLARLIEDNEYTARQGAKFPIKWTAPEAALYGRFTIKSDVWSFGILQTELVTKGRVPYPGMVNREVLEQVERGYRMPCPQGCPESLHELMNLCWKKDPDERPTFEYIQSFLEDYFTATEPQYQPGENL
- Protocol summary: Yes kinase inhibition, luciferase-based residual ATP (KinaseGlo)
- Test context: recombinant human Yes, ATP 3 μM, PTK2 substrate, 90 minutes at room temperature
- Experimental: The ability of compounds of the present invention to inhibit the activity of three groups of kinases was tested. Kinases tested included the src family (primarily src and yes), the angiogenic growth factors receptors (FGFR1, PDGFRb and VEGFR2) and the ephrin, EphB4. All kinase reactions were conducted in 96-well plates with a final reaction volume of 50 ul. […]
Experimental endpoint: IC50

[[record]]
compound = "Clc1cccc(Cl)c1CNc1cnc(Nc2ccc(OCCN3CCCC3)cc2)nc1"
result = "40 nM"


For the 5 compounds below, give their IC50 values.
1. O=C(Nc1cnc(Nc2ccc(OCCN3CCCC3)cc2)nc1)c1cc(O)ccc1Cl [drawing 200]
2. O=C(Nc1cnc(Nc2ccc(S(=O)(=O)NCCN3CCCC3)cc2)nc1)c1cc(O)ccc1Cl [drawing 203]
3. O=C(NCCN1CCCC1)c1ccc(Nc2ncc(NC(=O)c3cc(O)ccc3Cl)cn2)cc1 [drawing 208]
4. O=C(Nc1cnc(Nc2ccc(C(=O)N3CCNCC3)cc2)nc1)c1cc(O)ccc1Cl [drawing 205]
5. CC(C)N(CCO)C(=O)c1ccc(Nc2ncc(NC(=O)c3cc(O)ccc3Cl)cn2)cc1 [drawing 210]

Data returned:
1: 26 nM; 2: 0.8 nM; 3: 4.4 nM; 4: 1.9 nM; 5: 6 nM

###

- System: human c-Src (Homo sapiens)
- Construct: purchased Panvera/Invitrogen
- Protocol summary: Src kinase inhibition, luciferase-based residual ATP (KinaseGlo)
- Type: biochemical
- Test context: recombinant human c-Src, ATP 3 μM, PTK2 substrate, 90 minutes at room temperature
Experimental endpoint: pIC50
One number for each entry, as −log10 of the molar value.

Here is how some molecules turned out for pIC50.
[[record]]
smiles_input = "O=C(Nc1cnc(Nc2cccnc2)nc1)c1cc(O)ccc1Cl"
system = "human c-Src (Homo sapiens)"
result = 7.37

[[record]]
smiles_input = "CN(CCN1CCCC1)S(=O)(=O)c1ccc(Nc2ncc(NC(=O)c3c(Cl)cccc3Cl)cn2)cc1"
system = "human c-Src (Homo sapiens)"
result = 5.68

[[record]]
smiles_input = "CC(C)N(CCO)C(=O)c1ccc(Nc2ncc(NC(=O)c3cc(O)ccc3Cl)cn2)cc1"
system = "human c-Src (Homo sapiens)"
result = 7.37

[[record]]
smiles_input = "O=C(Nc1cnc(Nc2ccc(S(=O)(=O)CCCN3CCCC3)cc2)nc1)c1c(Cl)cccc1Cl"
system = "human c-Src (Homo sapiens)"
result = 6.92

[[record]]
smiles_input = "O=C(Nc1cnc(Nc2ccc(S(=O)(=O)CCCN3CCCC3)cc2)nc1)c1ccc(O)cc1Cl"
system = "human c-Src (Homo sapiens)"
result = 6.34

[[record]]
smiles_input = "CN1CCN(C(=O)c2ccc(Nc3ncc(NC(=O)c4cc(O)ccc4Cl)cn3)cc2)CC1"
system = "human c-Src (Homo sapiens)"
result = 7.68


For the 6 molecules below, give their pIC50 values.
1. Clc1cccc(Cl)c1CNc1cnc(Nc2cccc(OCCN3CCCC3)c2)nc1
2. O=C(NCCN1CCCC1)c1ccc(Nc2ncc(NC(=O)c3cc(O)ccc3Br)cn2)cc1
3. O=C(Nc1cnc(Nc2ccc(C(=O)N3CCNCC3)cc2)nc1)c1cc(O)ccc1Cl
4. CN1CCN(S(=O)(=O)c2ccc(Nc3ncc(NC(=O)c4c(Cl)cccc4Cl)cn3)cc2)CC1
5. Cc1cccc(C)c1C(=O)Nc1cnc(Nc2cccc(S(=O)(=O)NCCN(C)C)c2)nc1
6. O=C(NCCN1CCCC1)c1ccc(Nc2ncc(NC(=O)c3cc(O)ccc3Cl)cn2)cc1

Data returned:
[7.22, 7.89, 7.92, 6.18, 6.54, 8.07]

For the 5 molecules below, give their pIC50 values.
1. O=C(NCCN1CCCC1)c1csc(Nc2ncc(NC(=O)c3cc(O)ccc3Cl)cn2)n1
2. O=C(Nc1cnc(Nc2cccc(OCCN3CCCC3)c2)nc1)c1cc(O)ccc1Cl
3. O=C(NCCN1CCCC1)c1ccc(Nc2ncc(NC(=O)c3cc(O)ccc3Cl)cn2)cn1
4. O=C(NCCN1CCCC1)c1ccc(Nc2ncc(NC(=O)c3ccc(O)cc3Cl)cn2)cc1
5. Cc1c(O)cccc1C(=O)Nc1cnc(Nc2ccc(C(=O)NCCN3CCCC3)cc2)nc1

Data returned:
7.70
7.68
7.89
7.07
6.67

For the 3 molecules below, give their pIC50 values.
1. CC(C)N(CCO)C(=O)c1cccc(Nc2ncc(NC(=O)c3c(Cl)cccc3Cl)cn2)c1
2. O=C(Nc1cnc(Nc2ccc(S(=O)(=O)CCCN3CCCC3)cc2)nc1)c1cc(Cl)ccc1Cl
3. O=C(Nc1cnc(Nc2cccc(OCCN3CCCC3)c2)nc1)c1c(Cl)cccc1Cl

Data returned:
1. 7.60
2. 5.76
3. 7.60

For the 6 molecules below, give their pIC50 values.
1. Cc1cccc(C)c1C(=O)Nc1cnc(Nc2ccc(C(=O)N3CCNCC3)cc2)nc1
2. Cc1cccc(C)c1C(=O)Nc1cnc(Nc2ccc(OCCN3CCCC3)cc2)nc1
3. O=C(Nc1cnc(Nc2ccc(N3CCN(CCO)CC3)nc2)nc1)c1c(Cl)cccc1Cl
4. CN1CCN(C(=O)c2ccc(Nc3ncc(NC(=O)c4c(Cl)cccc4Cl)cn3)cc2)CC1
5. Cc1c(O)cccc1C(=O)Nc1cnc(Nc2ccc(S(=O)(=O)CCCN3CCCC3)cc2)nc1
6. O=C(Nc1cnc(Nc2ccc(C(=O)N3CCN(CCO)CC3)nc2)nc1)c1cc(O)ccc1Cl

Data returned:
1: 6.74; 2: 6.98; 3: 7.27; 4: 7.03; 5: 6.47; 6: 7.28

Data request: # get_value(readout='pIC50', item= "O=C(NCCN1CCCC1)c1ccc(Nc2ncc(NC(=O)c3c(Cl)cccc3Cl)cn2)cc1" )
Data returned: 7.22
